System: HCT-15 colon
Protocol: NCI-60 one-dose screen, 48 h (100 = growth as untreated, 0 = no growth, -100 = all killed)
Test Parameters: 10 µM unless noted
This is part of a sample that, as a whole, favours compounds with a hit. Of some 83,000 tested, about 20% had one in any assay.
Attribute Measured: growth (%)
Please respond with the number in % and leave the unit unwritten.

Recorded growth, per entry:
Compound	Test Target	growth [%]
COc1cc(/C=C2/C=C(c3ccc(C(C)(C)C)cc3)N(CCc3ccc(S(N)(=O)=O)cc3)C2=O)cc(OC)c1OC	HCT-15 colon	30.3
Nc1ncc(-c2ccc3ncnc(N4CCc5ccc(Cl)cc54)c3c2)cc1C(F)(F)F	HCT-15 colon	14.9
O=C(CCCOc1ccc(Br)cc1)Nc1ncc(Cc2ccc(F)cc2)s1	HCT-15 colon	38.6
O=C(c1cccc(Br)c1)N1CCN(c2ccnc3cc(Cl)ccc23)CC1	HCT-15 colon	90.3
CCN(CC)CCOc1ccccc1C	HCT-15 colon	107
Cc1ccc(NC(=O)c2sc3nc(C)c(C(=O)c4ccccc4)cc3c2N)cc1	HCT-15 colon	83.1
COc1ccc(C(=O)N/N=C/c2ccc(O)cc2O)cc1Nc1ccnc(C(F)(F)F)c1	HCT-15 colon	40.1
COc1ccc(/C(C)=C(\c2ccc(OCCN3CCCCCC3)cc2)c2ccc(OC(=O)C3CCCCC3)cc2)cc1	HCT-15 colon	-76.7

In: What value of growth has been reported for the following compound? `CC/C(=C(/c1ccc(Cl)cc1)c1ccc(OCCN2CCOCC2)cc1)c1ccccc1`
Out: 94.1

In: What value of growth has been reported for the following compound? N=C1/C(=C2\NC3C=CC=CC3S2)C(c2ccc(Cl)cc2)C2C(=O)N(c3ccccc3)C(=S)N12 (stereo not drawn)
Out: 110

In: What value of growth has been reported for the following compound? `CC(=O)c1nn(-c2ccccc2)/c(=N/N=Cc2cn(-c3ccccc3)nc2-c2cc3ccccc3oc2=O)s1`
Out: 98.1

In: What value of growth has been reported for the following compound? `C[C@]12CCc3c(ccc4cc(O)ccc34)[C@@H]1C[C@H](O)[C@@H]2O`
Out: 108

In: What value of growth has been reported for the following compound? `COc1cc2cc(NCc3ccncc3)nc(C)c2cc1OC`
Out: 82.9

In: What value of growth has been reported for the following compound? `COc1ccc(C/C(C)=C(/c2ccc(OCCN3CCCCCC3)cc2)c2ccc(OC(=O)c3ccccc3)cc2)cc1`
Out: 100

In: What value of growth has been reported for the following compound? `CN1CCN(CCNC(=O)c2cccc(CN3c4cccc5c4C(=Cc4cccnc43)N(C)C5=O)c2)CC1`
Out: 10.7

In: What value of growth has been reported for the following compound? `O=C(Nc1ncc(Cc2cccc(C(F)(F)F)c2)s1)c1ccc(-n2cnnn2)cc1`
Out: 38.7

In: What value of growth has been reported for the following compound? `Cc1ccc(C(=O)N(CCCN)[C@@H](c2nc3cc(Cl)ccc3c(=O)n2Cc2ccccc2)C(C)C)cc1`
Out: -50

In: What value of growth has been reported for the following compound? `COc1ccc(-c2cc(-c3cccnc3)nc3sc4c(Cl)nnnc4c23)cc1OC`
Out: 69.9

====

Recorded measurements of growth, one per entry
Tested on: KM12 colon
Protocol: NCI-60 one-dose screen, 48 h (100 = growth as untreated, 0 = no growth, -100 = all killed)
Test Parameters: 10 µM unless noted
About 83,000 compounds went through this panel and 20% of them were active in at least one assay; those are over-represented in the sample as a whole.
Please respond with the number in % and leave the unit unwritten.

Molecule	growth / %
Cc1c(CC(=O)OCCO)cc(-c2ccc(Cl)cc2)n1-c1ccccc1	99.1
CN1CCN(Cc2ccc(NC(=O)c3cccc(C#Cc4c(N)ncc5ccc(F)cc45)c3)cc2C(F)(F)F)CC1	-82.1
Cc1ccc(NC(=O)N/C(N)=N/c2nc(=O)c3ccccc3s2)cc1	103

In: What value of growth has been reported for the following molecule? `O=C(NNC(=S)Nc1ccccc1)c1ccncc1`
Out: 107

In: What value of growth has been reported for the following molecule? `COc1cc(/C=C2\CCC/C(=C\c3cc(CN4CCCC4)c(O)c(OC)c3)C2=O)cc(CN2CCCC2)c1O`
Out: 11.9

====

Test system: SNB-19 CNS
Protocol: NCI-60 one-dose screen, 48 h (100 = growth as untreated, 0 = no growth, -100 = all killed)
Test Parameters: 10 µM unless noted
About 83,000 compounds went through this panel and 20% of them were active in at least one assay; those are over-represented in the sample as a whole.
Recorded measurements of growth, one per entry
Please respond with the number in % and leave the unit unwritten.

Compound	Numeric Readout
CN(C)CCN1C(=O)c2c(c3c4ccccc4n4c3c3c2c2ccccc2n3C2CC(O)C(O)C4(C)O2)C1=O (configuration not stated)	17.1
O=C(/C=C/C12c3ccccc3C(c3ccccc31)C1C(=O)NC(=O)C12)c1ccncc1 (configuration not stated)	14.5
C[C@@H]1CC[C@@H]2[C@@H]1[C@H](OC(=O)/C=C/c1ccccc1)[C@]1(c3ccccc3)C[C@@H](NC(=O)CO)[C@@]2(C)O1	96.2
N#CC1=C(N)Oc2c(sc3c(Br)cccc23)C1c1ccccn1 (configuration not stated)	48.4
CC(=O)OC[C@]12CCC(C)(C)C=C1[C@H]1CC[C@@H]3[C@@]4(C)CCCNC(C)(C)[C@@H]4CC[C@@]3(C)[C@]1(C)CC2	53.4
O=C(/C=C/c1ccc(F)cc1)Nc1ncc(Cc2ccc(F)cc2)s1	58.1

Consider now this further compound.
In: What value of growth has been reported for the following compound? `COc1cc(OC)cc(-c2ccc(-c3ccc(C(=N)N)cn3)s2)c1`
Out: 92.1

====

Test system: CCRF-CEM leukemia
Protocol: NCI-60 one-dose screen, 48 h
Test Parameters: 10 µM unless noted
This is part of a sample that, as a whole, favours compounds with a hit. Of some 83,000 tested, about 20% had one in any assay. The source made the active and inactive calls. The calls were made as follows: active = growth percent below 10; inactive = the rest.
Answer with one of the outcomes given here: active, inactive

Compound	Label Value
Cc1oc2c(Cc3ccc(NC(=O)c4ccc(Cl)cc4)cc3)ncnc2c1C(=O)NO	inactive
Nc1c(C(=O)Nc2ccncc2)sc2nc3c(cc12)CCCCCCCC3	active
C=C1C(=O)O[C@H]2[C@H]1CC/C(COC(=O)NCc1ccc(Cn3c(=O)sn(CCCI)c3=O)cc1)=C\CC[C@@]1(C)O[C@@H]21	active
CCN1C(=O)/C(=c2\sc3n(c2=O)C2C(NN=3)N(CC)C(=O)N2CC)c2ccccc21 (configuration not stated)	inactive
Cc1ccc(S(=O)(=O)OC[C@@]2(C)CC[C@]3(C)CC[C@]4(C)C(=CC[C@@H]5[C@@]6(C)CCCNC(C)(C)[C@@H]6CC[C@]54C)[C@@H]3C2)cc1	active

In: Would you mind telling me which call this test gave `CS(=O)(=O)Nc1cc(-c2ccc3ncnc(Nc4ccc(F)c(Cl)c4)c3c2)cnc1Cl` ?
Out: active

In: Would you mind telling me which call this test gave `COC1=CC(=O)C(OC)=C(O)C1=O` ?
Out: inactive

====

Recorded measurements of growth, one per entry
Test system: M14 melanoma
Protocol: NCI-60 one-dose screen, 48 h (100 = growth as untreated, 0 = no growth, -100 = all killed)
Test Parameters: 10 µM unless noted
This is part of a sample that, as a whole, favours compounds with a hit. Of some 83,000 tested, about 20% had one in any assay.
Please respond with the number in % and leave the unit unwritten.

Smiles	Unit Text	growth
COc1cc(/C=N/NC(=O)CCN2c3ccccc3Sc3ccccc32)cc(OC)c1OC	%	79.3

In: growth of `O=c1cc(N/N=C/c2ccc(F)cc2)c2cc(Cl)ccc2[nH]1` on M14 melanoma?
Out: 81.2

In: growth of `Nc1nc(Nc2ccc(F)cc2)nn1C(=O)c1cc(Cl)ccc1Cl` on M14 melanoma?
Out: 86.8

====

Tested on: HCT-15 colon
Protocol: NCI-60 one-dose screen, 48 h (100 = growth as untreated, 0 = no growth, -100 = all killed)
Test Parameters: 10 µM unless noted
This is part of a sample that, as a whole, favours compounds with a hit. Of some 83,000 tested, about 20% had one in any assay. Activity calls are given as the source filed them. Rule for the calls: active = growth percent below 10; inactive = the rest.
Attribute Measured: growth

Recorded growth, per entry:
Smiles	Attribute Measured	Result
O=C([C@H]1C[C@H]1c1ccc(S(F)(F)(F)(F)F)cc1)N1CCN(c2cc(Cl)ccc2C(F)(F)F)CC1	growth	88.1% (inactive)
C=CCOc1ccc(/C=C2\SC(=S)N(CCc3ccc(O)cc3)C2=O)cc1	growth	82.9% (inactive)
CCCCCCCCCCCCC[C@H](O)C[C@H](O)[C@H](C)N	growth	97.8% [1.25 µM] (inactive)
COc1ccc(Cl)cc1Nc1nc(C(F)(F)F)ccc1C(=O)N/N=C/c1ccc(N(C)C)cc1	growth	87.3% (inactive)
Clc1cccc(Nc2ncnc3ccc(-c4cncc(-n5cnnn5)c4)cc23)c1	growth	70.2% (inactive)

In: growth of `COCCn1cc(-c2nc(-c3cn(CCOC)c4ncccc34)cs2)c2ccccc21` on HCT-15 colon?
Out: 18.1% (inactive)

In: growth of `COc1ccc(C/C(C)=C(\c2ccc(O)cc2)c2ccc(OCCCN(C)C)cc2)cc1` on HCT-15 colon?
Out: 89.7% (inactive)
